- targetOrSystem: WT p97 (Homo sapiens)
- Sequence (P55072 whole entry): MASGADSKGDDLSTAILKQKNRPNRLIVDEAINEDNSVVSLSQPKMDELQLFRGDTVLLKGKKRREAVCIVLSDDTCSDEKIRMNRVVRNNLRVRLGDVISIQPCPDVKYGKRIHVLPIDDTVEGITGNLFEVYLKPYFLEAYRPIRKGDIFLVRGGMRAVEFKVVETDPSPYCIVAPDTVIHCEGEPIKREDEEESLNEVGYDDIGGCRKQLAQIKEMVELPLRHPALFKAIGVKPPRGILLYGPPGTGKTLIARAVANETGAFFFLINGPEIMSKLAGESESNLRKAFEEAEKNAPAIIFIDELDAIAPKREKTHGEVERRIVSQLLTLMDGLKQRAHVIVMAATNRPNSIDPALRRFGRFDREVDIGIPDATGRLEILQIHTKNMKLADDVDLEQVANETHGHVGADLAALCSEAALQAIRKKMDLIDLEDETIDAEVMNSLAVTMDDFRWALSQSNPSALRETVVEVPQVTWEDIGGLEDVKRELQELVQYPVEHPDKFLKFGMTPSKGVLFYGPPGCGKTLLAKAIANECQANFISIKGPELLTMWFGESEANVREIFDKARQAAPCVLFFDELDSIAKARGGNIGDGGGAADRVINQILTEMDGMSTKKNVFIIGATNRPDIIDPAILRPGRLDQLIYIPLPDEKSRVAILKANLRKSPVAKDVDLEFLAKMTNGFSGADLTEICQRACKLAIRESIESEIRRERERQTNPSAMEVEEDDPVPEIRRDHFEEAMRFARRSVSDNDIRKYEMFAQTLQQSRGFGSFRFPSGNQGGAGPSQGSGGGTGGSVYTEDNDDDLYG
pIC50: −log10 of the molar value.
parameter: pIC50

• CC(C)N1CCN(CCNC2CCN(c3cccc(-c4cc5cc(F)ccc5[nH]4)c3)CC2)CC1 [UPCDC-30245] = 6.52
